System: L1210 leukemia ip in BDF1 mice, survival T/C
Assay: NCI In Vivo Anticancer Drug Screen. Data for tumor model L1210 Leukemia (intraperitoneal) in B6D2F1 (BDF1) mice
Details: endpoint: mean survival time; dose: 25.0 mg/kg/injection; schedule: Q01DX001 (ip); vehicle: Klucel (hydroxypropylcellulose) (HPC); higher = longer survival
Toxic doses and inconclusive results are not listed.
Let's look at some molecules and their measured T/C.

molecule: COC(=O)C(c1ccccc1)C1(O)CCN(CC2COc3ccccc3O2)CC1 (centres undefined)
T/C: 96 % of control

molecule: C=C(Cl)COC(=O)C(C)O (centres undefined)
T/C: 98 % of control

molecule: COc1ccc(C[n+]2cc([O-])on2)cc1
T/C: 99 % of control

Now examine the next entry.
Ask: Request - read-out T/C | tested on L1210 leukemia ip in BDF1 mice, survival T/C | molecule "CC1=CC(=O)N(C2=CC(=O)C=CC2=O)/C1=C/C#N"
Reply: 88 % of control

----------
Tested on: L1210 leukemia ip in BDF1 mice, survival T/C
Test: NCI In Vivo Anticancer Drug Screen. Data for tumor model L1210 Leukemia (intraperitoneal) in B6D2F1 (BDF1) mice
Details: endpoint: mean survival time; dose: 400.0 mg/kg/injection; schedule: Q01DX001 (ip); vehicle: saline with Tween-80; higher = longer survival
Toxic doses and inconclusive results are not listed.
endpoint: T/C

Known results for compounds:
compound: CCOC(=O)c1c[nH]c2c(Cl)ccc(-c3ccccc3)c2c1=O
T/C: 93 % of control
//
compound: CCOc1cccc(Cc2cn(Cc3cccc(NC(=O)c4ccccc4)c3)c(=O)[nH]c2=O)c1
T/C: 95 % of control
//
compound: CN(C)N=Nc1ccc([N+](=O)[O-])cc1C(N)=O
T/C: 108 % of control

Ask: So what does the record say about T/C for CCCCCCCCCC(CC)(CCCCCCC)CCCCCCCC (stereo not given) ?
Reply: 103 % of control

Ask: So what does the record say about T/C for "NCc1cccc(OCCOc2ccccc2)c1" ?
Reply: 103 % of control

----------
Test system: L1210 leukemia ip in BDF1 mice, survival T/C
Assay: NCI In Vivo Anticancer Drug Screen. Data for tumor model L1210 Leukemia (intraperitoneal) in B6D2F1 (BDF1) mice
Conditions: endpoint: mean survival time; dose: 150.0 mg/kg/injection; schedule: Q01DX001 (ip); vehicle: saline; higher = longer survival
Inconclusive results and toxic doses are left out.
endpoint: T/C

Known results for molecules:
molecule: C=CCCC1(C(C)CC)C(=O)NC(=S)NC1=O (stereo not given)
T/C: 95 % of control

molecule: NCCSC1(O)C(=O)c2ccccc2C1=O
T/C: 110 % of control

molecule: C=C(C)C1(CCC(C)C)C(=O)NC(=O)NC1=O
T/C: 104 % of control

molecule: CN(CCc1cnc2nc(N)[nH]c(=O)c2n1)c1ccc(C(=O)O)cc1
T/C: 95 % of control

molecule: NC1=NC(=O)/C(=C/c2ccco2)S1
T/C: 93 % of control

molecule: CC1(C)OC2C(C(=O)N(CCO)CCO)OC(n3cnc4c(N)ncnc43)C2O1 (stereo not given)
T/C: 104 % of control

Now examine the next entry.
Ask: So what does the record say about T/C for CCOC(=O)CC1C(C)C(C)NC(C)C1C (stereo not given) ?
Reply: 103 % of control
